- Tested on: uninfected MT4 cells
- Type: cell-based
- RECORDED CONDITIONS: n=4 duplicate determinations, read-out: LC50 (the source's name)
Let's look at some compounds and their measured CC50.

COMPOUND	COMPARATOR	CC50, µM
CC(C)[C@@H](C(=O)N[C@@H](Cc1ccccc1)C[C@H](O)[C@H](Cc1ccccc1)NC(=O)O[C@H]1CO[C@H]2OCC[C@H]21)N1CCN(C)C1=O	>	100
Cc1cccc(C)c1/C=C/C(=O)N[C@@H](Cc1ccccc1)[C@@H](O)C[C@H](Cc1ccccc1)NC(=O)[C@H](C(C)C)N1CCCNC1=O (relative stereo) [Example 19E]	=	17.9
Cc1cccc(C)c1OCC(=O)N[C@@H](Cc1ccccc1)[C@@H](O)C[C@H](Cc1ccccc1)NC(=O)[C@@H](N1CCNC1=O)C(C)(C)C	=	17.8
Cc1cc(C)c(OCC(=O)N[C@@H](Cc2ccccc2)[C@@H](O)C[C@H](Cc2ccccc2)NC(=O)[C@H](C(C)C)N2CCNC2=O)c(C)c1 [Example 11B]	=	18.2
Cc1cc(N)cc(C)c1OCC(=O)N[C@@H](Cc1ccccc1)[C@@H](O)C[C@H](Cc1ccccc1)NC(=O)[C@H](C(C)C)N1CCNC1=O [Example 10F]	=	92
CC(C)[C@@H](C(=O)N[C@@H](Cc1ccccc1)C[C@H](O)[C@H](Cc1ccccc1)NC(=O)O[C@H]1CO[C@H]2OCC[C@H]21)N1CCNC1=O	>	100

###

- Test system: uninfected MT4 cells
- Format: cell-based
- RECORDED CONDITIONS: n=4 duplicate determinations, read-out: LC50 (the source's name)
In this section we review reported CC50 values for a set of compounds.
VALUE KIND: CC50 (µM)

> print(dat)
                                   compound  value.kind  unit.string  comparator  test.value
1  Cc1cccc(C)c1OCC(=O)N[C@@H](Cc1ccccc1)[C@@H](O)C[C@H](Cc1ccccc1)NC(=O)[C@H](C(C)C)N1CCC(=O)NC1=O [Example 25E]        CC50           µM           =        22.9
2  Cc1cccc(C)c1OCC(=O)N[C@@H](Cc1ccccc1)[C@@H](O)C[C@H](Cc1ccccc1)NC(=O)[C@H](C(C)C)N1CC=NNC1=O [Example 30B]        CC50           µM           =          18
3  Cc1cccc(C)c1OCC(=O)N[C@@H](Cc1ccccc1)[C@@H](O)C[C@H](NC(=O)[C@H](C(C)C)N1CCC(=O)NC1=O)C(C)C        CC50           µM           =        72.2
4  Cc1cccc(C)c1CCC(=O)N[C@@H](Cc1ccccc1)[C@@H](O)C[C@H](Cc1ccccc1)NC(=O)[C@H](C(C)C)N1CCCNC1=O [Example 20D]        CC50           µM           =        24.1
5  Cc1cccc(C)c1OCC(=O)N[C@@H](Cc1ccccc1)[C@@H](O)C[C@H](Cc1ccccc1)NC(=O)[C@H](C(C)C)N1CCCC1=O [Example 17C]        CC50           µM           =          19
6  CC(C)[C@@H](C(=O)N[C@@H](Cc1ccccc1)C[C@H](O)[C@H](Cc1ccccc1)NC(=O)OCc1cncs1)N1CCNC1=O        CC50           µM           >         100

###

- TARGET SYSTEM: HIV protease (Human immunodeficiency virus type 1 group M subtype B)
- METHOD DESCRIPTION: Fluorogenic assay for screening inhibitors of HIV protease
- Type: biochemical
- RECORDED CONDITIONS: Inhibitor Concentration 0.5 nanomolar
# label = Yes if Percent Inhibition >= 60% else No

> print(dat)
                                   compound  class.name
1  Cc1cccc(C)c1OCC(=O)N[C@@H](Cc1ccccc1)[C@@H](O)C[C@H](Cc1ccccc1)NC(=O)[C@H](C(C)C)N1CCC(=O)NC1=O [Example 23C]         Yes
2  Cc1cc(C)c(OCC(=O)N[C@@H](Cc2ccccc2)[C@@H](O)C[C@H](Cc2ccccc2)NC(=O)[C@H](C(C)C)N2CCNC2=O)c(C)c1 [Example 11B]         Yes
3  Cc1ccnc(C)c1OCC(=O)N[C@@H](Cc1ccccc1)[C@@H](O)C[C@H](Cc1ccccc1)NC(=O)[C@@H](N1CCNC1=O)C(C)(C)C [Example 14D]          No
4  Cc1cccc(C)c1OCC(=O)N[C@@H](Cc1ccccc1)[C@@H](O)C[C@H](Cc1ccccc1)NC(=O)[C@H](C(C)C)N1CCOC1=O         Yes
5  Cc1ccnc(C)c1OCC(=O)N[C@@H](Cc1ccccc1)[C@@H](O)C[C@H](Cc1ccccc1)NC(=O)[C@H](C(C)C)N1CCNC1=O          No
6  Cc1cccc(C)c1OCC(=O)N[C@@H](Cc1ccccc1)[C@@H](O)C[C@H](Cc1ccccc1)NC(=O)[C@H](C(C)C)N1C(=O)CCC1=O [Example 18C]          No

###

Some compounds, each annotated with its measured Percent Inhibition.
- TARGET SYSTEM: UniProt P04585
- METHOD DESCRIPTION: Fluorogenic assay for screening inhibitors of HIV protease
- Format: biochemical
- RECORDED CONDITIONS: Inhibitor Concentration 0.5 nanomolar
VALUE KIND: Percent Inhibition (%)

> print(dat)
                                   compound  test.value
1  Cc1cccc(C)c1OCC(=O)N[C@@H](Cc1ccccc1)[C@@H](O)C[C@H](Cc1ccccc1)NC(=O)[C@H](C(C)C)N1CC=NNC1=O [Example 30B]        91.0
2  Cc1cccc(C)c1OCC(=O)N[C@@H](Cc1ccccc1)[C@@H](O)C[C@H](Cc1ccccc1)NC(=O)[C@H](C(C)C)N1CCNC1=S [Example 9B]        62.6
3  CC(C)(C)[C@@H](C(=O)N[C@@H](Cc1ccccc1)C[C@H](O)[C@H](Cc1ccccc1)NC(=O)OCc1cncs1)N1CCNC1=O [Example 7B]        67.1
4  Cc1cccc(C)c1OCC(=O)N[C@@H](Cc1ccccc1)[C@@H](O)C[C@H](Cc1ccccc1)NC(=O)[C@H](C(C)C)N1CCCNC1=O [Example 2B]        93.2
5  Cc1cc(F)cc(C)c1OCC(=O)N[C@@H](Cc1ccccc1)[C@@H](O)C[C@H](Cc1ccccc1)NC(=O)[C@H](C(C)C)N1CCNC1=O [Example 12B]        76.8
6  Cc1cccc(C)c1OCC(=O)N[C@@H](Cc1ccccc1)[C@@H](O)C[C@H](Cc1ccccc1)NC(=O)[C@H](C(C)C)N1CCC(=O)NC1=O [Example 25E]         100

###

- System: uninfected MT4 cells
- Type: cell-based
- RECORDED CONDITIONS: n=4 duplicate determinations, read-out: LC50 (the source's name)
Quick rule for you: CC50 under 40 µM gets criterion met, anything else gets criterion not met.

> print(dat)
                                    compound         class.name
 1  Cc1ccnc(C)c1OCC(=O)N[C@@H](Cc1ccccc1)[C@@H](O)C[C@H](Cc1ccccc1)NC(=O)[C@@H](N1CCNC1=O)C(C)(C)C [Example 14D]  criterion not met
 2  Cc1cccc(C)c1OCC(=O)N[C@@H](Cc1ccccc1)[C@@H](O)C[C@H](Cc1ccccc1)NC(=O)[C@H](C(C)C)N1C(=O)CCC1=O [Example 18C]      criterion met
 3  Cc1cccc(C)c1OCC(=O)N[C@@H](Cc1ccccc1)[C@@H](O)C[C@H](Cc1ccccc1)NC(=O)[C@H](C(C)C)N1CCNC1=S [Example 9B]      criterion met
 4  Cc1cccc(C)c1OCC(=O)N[C@@H](Cc1ccccc1)[C@@H](O)C[C@H](NC(=O)[C@H](C(C)C)N1CCCNC1=O)C(C)C [Example 27D]  criterion not met
 5  Cc1cccc(C)c1OCC(=O)N[C@@H](Cc1ccccc1)[C@@H](O)C[C@H](Cc1ccccc1)NC(=O)[C@H](C(C)C)N1CCNNC1=O [Example 26H]      criterion met
 6  Cc1cccc(C)c1OCC(=O)N[C@@H](Cc1ccccc1)[C@@H](O)C[C@H](Cc1ccccc1)NC(=O)[C@H](C(C)C)N1CCNC(=O)C1=O [Example 29C]  criterion not met
 7  Cc1ccnc(C)c1OCC(=O)N[C@@H](Cc1ccccc1)[C@@H](O)C[C@H](Cc1ccccc1)NC(=O)[C@H](C(C)C)N1CCNC1=O [Example 15]  criterion not met
 8  Cc1cc(F)cc(C)c1OCC(=O)N[C@@H](Cc1ccccc1)[C@@H](O)C[C@H](Cc1ccccc1)NC(=O)[C@H](C(C)C)N1CCNC1=O [Example 12B]      criterion met
 9  Cc1cccc(C)c1OCC(=O)N[C@@H](Cc1ccccc1)[C@@H](O)C[C@H](Cc1ccccc1)NC(=O)[C@H](C(C)C)N1CCNC1=O [Example 1P]  criterion not met
10  Cc1cccc(C)c1OCC(=O)N[C@@H](Cc1ccccc1)[C@@H](O)C[C@H](Cc1ccccc1)NC(=O)[C@H](C(C)C)N1CCOC1=O [Example 3C]  criterion not met
11  CC(C)(C)[C@@H](C(=O)N[C@@H](Cc1ccccc1)C[C@H](O)[C@H](Cc1ccccc1)NC(=O)OCc1cncs1)N1CCNC1=O [Example 7B]  criterion not met
12  Cc1cccc(C)c1OCC(=O)N[C@@H](Cc1ccccc1)[C@@H](O)C[C@H](Cc1ccccc1)NC(=O)[C@H](C(C)C)N1CCCNC1=O [Example 2B]      criterion met
